Consider the following variants and their measured protein stability index readings.
B1: GMCL1 (parent)
chain: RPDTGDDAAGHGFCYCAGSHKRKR

# Variants of: B1
# experiment.summary: protein stability index of a GFP-peptide fusion (GPS, HEK-293T) (PSI 1-6); higher = more stable;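 also: lentivirally expressed fusions sorted by FACS into six bins by GFP to DsRed ratio, PSI derived from sequencing read proportions per bin multiplied by bin number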
# experimental.conditions: c terminus: a fixed tail appended

| variant.id | protein stability index |
| --- | --- |
| G5Q | 2.87 |
| D7Y | 2.99 |
| C16H | 3.87 |
| D7Q | 2.83 |
| H11C | 2.47 |
| Y15V | 2.8 |
| S19M | 2.52 |
| D6V | 2.93 |
| R1S | 2.96 |
| G12T | 3.62 |
| G12V | 3.73 |
| D7S | 3.47 |
| G18F | 2.7 |
| H11M | 3.15 |
| T4R | 3.6 |
| Y15F | 2.6 |
| K21Q | 2.79 |
| G5F | 2.59 |
| R22T | 2.64 |
| H11L | 3.14 |
| K21I | 2.01 |
| H20Y | 3.12 |
| Y15R | 3.41 |
| H11T | 4.18 |
| G12H | 3.05 |
| D3L | 3.14 |
| Y15P | 3.36 |
| R24M | 2.77 |
| A9P | 3.01 |
| G18L | 2.66 |
| T4D | 3.79 |
| K23D | 3.33 |
| R1H | 3.08 |
| A17M | 2.99 |
| R24D | 4.3 |
| G12I | 3.02 |
| R22N | 2.62 |
| K21N | 2.83 |
| F13L | 2.87 |
| K23Y | 2.22 |
| G12L | 2.38 |
| H11Y | 2.84 |
| K21V | 2.79 |
| H20R | 3.31 |
| T4Y | 2.87 |
| H11D | 3.45 |
| K21W | 2.29 |
| C14R | 4.87 |
| A8P | 3.09 |
| D6N | 3.57 |
| C14E | 4.99 |
| K21H | 2.35 |
| G10M | 3.2 |
| D7G | 3.3 |
| F13N | 3.4 |
| R22W | 2.6 |
| F13T | 3.34 |
| G10P | 2.73 |
| D6T | 2.89 |
| H20S | 3.95 |
| G5W | 2.59 |
| R24L | 2.66 |
| R22C | 3.59 |
| R24S | 3.47 |
| A9T | 3.55 |
| S19G | 3.14 |
| F13C | 2.19 |
| P2I | 3.08 |
| C14G | 4.85 |
| Y15A | 3.12 |
| R22L | 2.57 |
| G12R | 3.11 |
| R1F | 1.76 |
| K21Y | 2.11 |
| C14Q | 4.7 |
| A8H | 3.61 |
| D3I | 3.29 |
| H20W | 2.62 |
| C14M | 4.9 |
| K21T | 2.74 |
| G5E | 2.93 |
| A9M | 2.96 |
| G10W | 2.84 |
| P2R | 2.85 |
| D3R | 3.19 |
| A8G | 3.11 |
| Y15K | 2.5 |
| S19I | 2.96 |
| P2E | 3.14 |
| P2A | 3.02 |
| G10E | 3.14 |

Values were extracted from the supplement of paper PMC10567573.
